- Tested on: MCF-7 (breast) cancer cell line
- procedure_text: NCI sulforhodamine B growth inhibition, MCF-7
- Format: cell-based, human
- measurement_conditions: MCF-7, 48 h, bracketed value, read-out: GI50
Square brackets hold non-standard residues; d marks the D form. Peptide text beside a SMILES is read from it. * marks the point of attachment. Dolaproine = CO[C@@H]([C@@H]1CCCN1)[C@@H](C)C(=O)O; Dil = CC[C@H](C)[C@H](NC)[C@@H](CC(=O)O)OC; X1 = C[C@@H](N*)[C@@H](O)c1ccccc1; NMeV = CN[C@H](C(=O)O)C(C)C
Reported log10(GI50) values for a set of compounds
Recall that a logarithmic scale is used here: each number is log10 of GI50 in nM.

INSERT INTO measurements (compound, measured_attribute, test_value) VALUES
  ('CC[C@H](C)[C@@H]([C@@H](CC(=O)N1CCC[C@H]1[C@H](OC)[C@@H](C)C(=O)N[C@H](C)[C@@H](O)c1ccccc1)OC)N(C)C(=O)[C@@H](NC(=O)[C@@H](NC)C(C)C)C(C)C [Desmethylauristatin E, desmethyl auristatin E, reference compound] (H-[NMeV]V[Dil][Dolaproine]-X1)', 'log10(GI50)', -0.39);

Return log10(GI50) (reported value) for this compound: CC[C@H](C)[C@@H]([C@@H](CC(=O)N1CCC[C@H]1[C@H](OC)[C@@H](C)C(=O)NCCc1cnc2ccccc2c1)OC)N(C)C(=O)[C@@H](NC(=O)[C@H](C(C)C)N(C)C)C(C)C
-0.51

Name the recorded log10(GI50) of the item CC[C@H](C)[C@@H]([C@@H](CC(=O)N1CCC[C@H]1[C@H](OC)[C@@H](C)C(=O)NCCc1cccc2cccnc12)OC)N(C)C(=O)[C@@H](NC(=O)[C@H](C(C)C)N(C)C)C(C)C in your answer.
-1.28

Respond only with log10(GI50) recorded for CC[C@H](C)[C@@H]([C@@H](CC(=O)N1CCC[C@H]1[C@H](OC)[C@@H](C)C(=O)NCCc1ccc2ncccc2c1)OC)N(C)C(=O)[C@@H](NC(=O)[C@H](C(C)C)N(C)C)C(C)C
-0.27

---

// reported log10 of GI50 for each item listed
- Test system: MCF-7 (breast) cancer cell line
- procedure_text: NCI sulforhodamine B growth inhibition, MCF-7
- Format: cell-based, human
- measurement_conditions: MCF-7, 48 h
Square brackets hold non-standard residues; d marks the D form. Peptide text beside a SMILES is read from it. * marks the point of attachment. Dolaproine = CO[C@@H]([C@@H]1CCCN1)[C@@H](C)C(=O)O; Dil = CC[C@H](C)[C@H](NC)[C@@H](CC(=O)O)OC; X1 = C[C@@H](N*)[C@@H](O)c1ccccc1; NMeV = CN[C@H](C(=O)O)C(C)C
Please interpret these as log10 of GI50 where GI50 is in ng/mL.

Solved entries (count: 4):
INSERT INTO assay_data (compound, subject_of_test, measured_attribute, test_value) VALUES
  ('CC[C@H](C)[C@@H]([C@@H](CC(=O)N1CCC[C@H]1[C@H](OC)[C@@H](C)C(=O)N[C@@H](Cc1ccccc1)c1nccs1)OC)N(C)C(=O)[C@@H](NC(=O)[C@H](C(C)C)N(C)C)C(C)C [Dolastatin 10, dolastatin 10, reference compound]', 'MCF-7 (breast) cancer cell line', 'log10 of GI50', -2.38),
  ('CC[C@H](C)[C@@H]([C@@H](CC(=O)N1CCC[C@H]1[C@H](OC)[C@@H](C)C(=O)N[C@H](C)[C@@H](O)c1ccccc1)OC)N(C)C(=O)[C@@H](NC(=O)[C@@H](NC)C(C)C)C(C)C [Desmethylauristatin E, desmethyl auristatin E, reference compound] (H-[NMeV]V[Dil][Dolaproine]-X1)', 'MCF-7 (breast) cancer cell line', 'log10 of GI50', -0.54),
  ('CC[C@H](C)[C@@H]([C@@H](CC(=O)N1CCC[C@H]1[C@H](OC)[C@@H](C)C(=O)NCCc1ccc2cccnc2c1)OC)N(C)C(=O)[C@@H](NC(=O)[C@H](C(C)C)N(C)C)C(C)C [Quinstatin 7]', 'MCF-7 (breast) cancer cell line', 'log10 of GI50', -1.52),
  ('CC[C@H](C)[C@@H]([C@@H](CC(=O)N1CCC[C@H]1[C@H](OC)[C@@H](C)C(=O)NCCc1ccc2ccccc2n1)OC)N(C)C(=O)[C@@H](NC(=O)[C@H](C(C)C)N(C)C)C(C)C [Quinstatin 2]', 'MCF-7 (breast) cancer cell line', 'log10 of GI50', -0.51);

Please indicate log10 of GI50 recorded for CC[C@H](C)[C@@H]([C@@H](CC(=O)N1CCC[C@H]1[C@H](OC)[C@@H](C)C(=O)NCCc1cnc2ccccc2c1)OC)N(C)C(=O)[C@@H](NC(=O)[C@H](C(C)C)N(C)C)C(C)C [Quinstatin 3]
-0.64

# return recorded log10 of GI50 for input CC[C@H](C)[C@@H]([C@@H](CC(=O)N1CCC[C@H]1[C@H](OC)[C@@H](C)C(=O)NCCc1ccc2ncccc2c1)OC)N(C)C(=O)[C@@H](NC(=O)[C@H](C(C)C)N(C)C)C(C)C [Quinstatin 6]
-0.40

Hello, please tell me recorded log10 of GI50 for this one: CC[C@H](C)[C@@H]([C@@H](CC(=O)N1CCC[C@H]1[C@H](OC)[C@@H](C)C(=O)NCCc1cccc2cccnc12)OC)N(C)C(=O)[C@@H](NC(=O)[C@H](C(C)C)N(C)C)C(C)C [Quinstatin 8]
-1.40

Quote log10 of GI50 reported for CC[C@H](C)[C@@H]([C@@H](CC(=O)N1CCC[C@H]1[C@H](OC)[C@@H](C)C(=O)N[C@H](C)[C@@H](O)c1ccccc1)OC)N(C)C(=O)[C@@H](NC(=O)[C@H](C(C)C)N(C)C)C(C)C [Auristatin E, auristatin E, reference compound] please.
-0.77
